Source of measurements: patent US5464861A

- systemTested: epidermal growth factor receptor tyrosine kinase (Homo sapiens, UniProt P00533)
- Construct: A native 170,000 epidermal growth factor receptor-kinase complex from shed plasma membrane vesicles; endogenous in cells
- Sequence (P00533 25-1210): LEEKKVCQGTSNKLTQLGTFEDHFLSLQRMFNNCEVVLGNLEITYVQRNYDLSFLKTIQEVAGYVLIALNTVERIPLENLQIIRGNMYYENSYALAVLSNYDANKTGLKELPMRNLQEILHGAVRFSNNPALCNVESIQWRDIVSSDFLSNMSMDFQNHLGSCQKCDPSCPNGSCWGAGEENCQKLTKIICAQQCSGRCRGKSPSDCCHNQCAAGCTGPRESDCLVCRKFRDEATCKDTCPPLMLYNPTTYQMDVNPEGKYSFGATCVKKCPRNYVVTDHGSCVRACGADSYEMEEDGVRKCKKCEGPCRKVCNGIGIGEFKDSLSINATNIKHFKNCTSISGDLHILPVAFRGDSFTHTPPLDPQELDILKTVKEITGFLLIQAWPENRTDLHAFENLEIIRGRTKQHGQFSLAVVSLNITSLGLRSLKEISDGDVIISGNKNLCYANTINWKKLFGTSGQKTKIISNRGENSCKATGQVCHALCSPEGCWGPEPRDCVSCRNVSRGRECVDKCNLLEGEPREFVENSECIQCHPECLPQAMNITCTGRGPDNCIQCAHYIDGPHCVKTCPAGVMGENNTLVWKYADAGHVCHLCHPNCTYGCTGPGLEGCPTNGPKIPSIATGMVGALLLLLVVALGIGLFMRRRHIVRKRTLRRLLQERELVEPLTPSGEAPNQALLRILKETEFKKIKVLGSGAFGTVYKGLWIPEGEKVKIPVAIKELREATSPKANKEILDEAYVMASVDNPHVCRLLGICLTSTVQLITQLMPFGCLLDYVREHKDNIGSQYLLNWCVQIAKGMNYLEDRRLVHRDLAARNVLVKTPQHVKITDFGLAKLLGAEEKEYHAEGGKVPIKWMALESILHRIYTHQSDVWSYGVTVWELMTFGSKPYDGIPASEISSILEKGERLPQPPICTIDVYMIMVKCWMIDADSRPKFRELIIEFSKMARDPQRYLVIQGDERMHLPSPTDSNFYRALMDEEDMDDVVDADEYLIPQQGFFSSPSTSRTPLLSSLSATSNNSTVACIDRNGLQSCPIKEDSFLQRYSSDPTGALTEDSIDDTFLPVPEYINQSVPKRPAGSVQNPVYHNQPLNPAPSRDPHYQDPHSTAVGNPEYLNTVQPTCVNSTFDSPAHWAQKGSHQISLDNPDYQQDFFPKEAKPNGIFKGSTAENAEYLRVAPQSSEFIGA
- Sequence (P01133 971-1023 partner limits assumed): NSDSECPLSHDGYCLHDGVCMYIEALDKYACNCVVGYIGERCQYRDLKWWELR
- methodSummary: EGF receptor tyrosine kinase assay (P^32 incorporation in GAT)
- Format: biochemical
- conditionDetails: Table 2, EGRF-R; IC50 entries; read-out: IC50 (EGFR TK)
IC50 under 20 µM gets met, anything at or over 20 µM gets not met.

Observe how each entry below is paired with its result.
molecule=CNC(=O)c1c(SSc2[nH]c3ccccc3c2C(=O)NC)[nH]c2ccccc12 assignedlabel=met
molecule=Cn1c(SSc2c(C#N)c3ccccc3n2C)c(C#N)c2ccccc21 assignedlabel=met
molecule="O=C(O)Cc1c(SSSc2[nH]c3ccccc3c2CC(=O)O)[nH]c2ccccc12 [Compound 30, bis[indolyl-3-acetic acid-(2)]trisulfide]" assignedlabel=met
molecule="Cn1c(SSc2c(C(=O)NCC(O)CO)c3ccccc3n2C)c(C(=O)NCC(O)CO)c2ccccc21 (centres unmarked)" assignedlabel="not met"
molecule=O=C(Cc1c(SSc2[nH]c3ccccc3c2CC(=O)NCc2ccccc2)[nH]c2ccccc12)NCc1ccccc1 assignedlabel="not met"

Enquiry: A record lists `Cn1c(SSc2c(CCCC(=O)O)c3ccccc3n2C)c(CCCC(=O)O)c2ccccc21` . Is its IC50 below 20 µM?
Return: met

Enquiry: Please indicate whether the reported IC50 of N#CCCc1c(SSc2[nH]c3ccccc3c2CCC#N)[nH]c2ccccc12 [Compound 48, 2,2'-dithiobis[3-indolylpropionitrile]] is strictly below 20 µM.
Return: not met

###

- systemTested: epidermal growth factor receptor tyrosine kinase (Homo sapiens, UniProt P00533)
- Construct: A native 170,000 epidermal growth factor receptor-kinase complex from shed plasma membrane vesicles; endogenous in cells
- methodSummary: EGF receptor tyrosine kinase assay (P^32 incorporation in GAT)
- Type: biochemical
- conditionDetails: Table 2, EGRF-R; IC50 entries; read-out: IC50 (EGFR TK)
measuredEndpoint: IC50 (µM)
Expressed in µM, but write only the number.

compound=Cn1c(SSc2c(C(=O)Nc3ccccc3)c3cc(Cl)ccc3n2C)c(C(=O)Nc2ccccc2)c2cc(Cl)ccc21 measuredendpoint=IC50 valuemeasured=4.3
compound=Cn1c(SSc2c(C(=O)Nc3cccc(C(=O)O)c3)c3ccccc3n2C)c(C(=O)Nc2cccc(C(=O)O)c2)c2ccccc21 measuredendpoint=IC50 valuemeasured=12
compound="O=C(NCc1ccccc1)C(O)Cc1c(SSc2[nH]c3ccccc3c2CC(O)C(=O)NCc2ccccc2)[nH]c2ccccc12 (stereo not shown)" measuredendpoint=IC50 valuemeasured=29
compound=CC(=O)Oc1cccc2c1c(C(=O)Nc1ccccc1)c(SSc1c(C(=O)Nc3ccccc3)c3c(OC(C)=O)cccc3n1C)n2C measuredendpoint=IC50 valuemeasured=26
compound=CN(C)C(=O)c1c(SSc2c(C(=O)N(C)C)c3ccccc3n2C)n(C)c2ccccc12 measuredendpoint=IC50 valuemeasured=21.2

Enquiry: For epidermal growth factor receptor tyrosine kinase (Homo sapiens, UniProt P00533), provide IC50 of `CNC(=O)c1c(SSc2c(C(=O)NC)c3ccccc3n2C)n(C)c2ccccc12` please.
Return: 10.1

Enquiry: I'm curious: which IC50 was measured for `CN(C)CCNC(=O)c1c(SSc2c(C(=O)NCCN(C)C)c3ccccc3n2C)n(C)c2ccccc12` tested on epidermal growth factor receptor tyrosine kinase (Homo sapiens, UniProt P00533)?
Return: 26

###

- Test system: HT-29 colon
- methodSummary: Growth inhibition assay, HT-29
- Format: cell-based
- conditionDetails: Homo sapiens, read-out: IC50 cell growth inhibition
measuredEndpoint: IC50 (µM)
Expressed in µM, but write only the number.

Enquiry: Data request, read-out IC50, for CN1C(=S)C(C(=O)Nc2ccccc2)c2ccccc21 (stereo not shown)
Return: 55

###

- systemTested: epidermal growth factor receptor tyrosine kinase (Homo sapiens, UniProt P00533)
- Construct: A native 170,000 epidermal growth factor receptor-kinase complex from shed plasma membrane vesicles; endogenous in cells
- methodSummary: EGF receptor tyrosine kinase assay (P^32 incorporation in GAT)
- Type: biochemical
- conditionDetails: Table 2, EGRF-R; IC50 entries; read-out: IC50 (EGFR TK)
- Procedure: At the time of assay, membranes were solubilized in 4% Triton X-100 and glycerol. The reaction is carried out in wells of a 96-well microtiter plate in a total volume of […]. Buffer containing 20 mMHepes (pH 7.4), 15 mMMgCl2, mM MnCl2, and 0.02% BSA followed by […] of membrane protein and 150 ng of epidermal growth factor. The plates are incubated for 10 minutes at room temperature to activate the receptor kinase. […]
pIC50: −log10 of the molar value.
Assign class by pIC50: not lower than 5 means met; lower than 5 means not met.

Enquiry: Please tell me: is the compound `Cc1ccc(S(=O)(=O)c2c(SSc3[nH]c4ccccc4c3S(=O)(=O)c3ccc(C)cc3)[nH]c3ccccc23)cc1` at or over 5 in terms of pIC50?
Return: not met

Enquiry: State whether the measured pIC50 reaches 5, counting equality as reaching it, for `CN(C)C(=O)CCc1c(SSc2[nH]c3ccccc3c2CCC(=O)N(C)C)[nH]c2ccccc12`
Return: met

Enquiry: # bool: pIC50 of `O=C(CCc1c(SSc2[nH]c3ccccc3c2CCC(=O)Nc2ccccc2)[nH]c2ccccc12)Nc1ccccc1` >= 5
Return: not met

Enquiry: Check the entry `O=C(CCc1c(SSc2[nH]c3ccccc3c2CCC(=O)NCc2ccccc2)[nH]c2ccccc12)NCc1ccccc1` : does pIC50 equal or exceed 5?
Return: met

Enquiry: Given the entry `O=C(O)CCCc1c(SSc2[nH]c3ccccc3c2CCCC(=O)O)[nH]c2ccccc12` , answer whether its pIC50 meets or surpasses 5.
Return: not met

Enquiry: Does the compound `COC(=O)CCc1c(SSc2[nH]c3ccccc3c2CCC(=O)OC)[nH]c2ccccc12` have recorded pIC50 that is 5 or more?
Return: not met

Enquiry: Is the recorded value of pIC50 equal to or greater than 5 for this compound? `COc1cccc2c(C(=O)Nc3ccccc3)c(SSc3c(C(=O)Nc4ccccc4)c4cccc(OC)c4n3C)n(C)c12`
Return: met

Enquiry: Could you tell me if the measured pIC50 of `CNC(=O)CCc1c(SSc2[nH]c3ccccc3c2CCC(=O)NC)[nH]c2ccccc12` reaches 5 or more?
Return: met

Enquiry: Hello, I need to know if `Cc1cccc2c(CCC(=O)O)c(SSc3[nH]c4c(C)cccc4c3CCC(=O)O)[nH]c12` has measured pIC50 not below 5. Thanks!
Return: met

Enquiry: Check if pIC50 >= 5 (inclusive). Item: O=C(O)CCC1C(=S)Nc2ccccc21 (stereo not shown)
Return: met

Enquiry: Identify whether the reported pIC50 of the following compound is 5 or greater: `CONC(=O)CCc1c(SSc2[nH]c3ccccc3c2CCC(=O)NOC)[nH]c2ccccc12`
Return: not met

Enquiry: Textbook exercise: given the entry `Cn1c(SSc2c(C(=O)Nc3ccccc3)c3cccnc3n2C)c(C(=O)Nc2ccccc2)c2cccnc21` , state whether its pIC50 is greater than or equal to 5.
Return: not met

Enquiry: # check: pIC50 of O=C(O)CCCC1C(=S)Nc2ccccc21 (stereo not shown) is greater than or equal to 5
Return: met

Enquiry: Check the entry `O=C(O)CCc1c(SSc2[nH]c3ccccc3c2CCC(=O)O)[nH]c2ccccc12` : does pIC50 equal or exceed 5?
Return: met

###

The molecules listed here are annotated with their inhibition at 100 µM.
- systemTested: epidermal growth factor receptor tyrosine kinase (Homo sapiens, UniProt P00533)
- Construct: A native 170,000 epidermal growth factor receptor-kinase complex from shed plasma membrane vesicles; endogenous in cells
- methodSummary: EGF receptor tyrosine kinase assay (P^32 incorporation in GAT)
- Type: biochemical
- conditionDetails: at 100 μM; EGRF-R; read-out: % Inhibition at 100 μM (EGFR TK)
- Description: At the time of assay, membranes were solubilized in 4% Triton X-100 and glycerol. The reaction is carried out in wells of a 96-well microtiter plate in a total volume of […]. Buffer containing 20 mMHepes (pH 7.4), 15 mMMgCl2, mM MnCl2, and 0.02% BSA followed by […] of membrane protein and 150 ng of epidermal growth factor. The plates are incubated for 10 minutes at room temperature to activate the receptor kinase. […]
Use % as the unit, but write only the number.

Solved entries (count: 3):
molecule=Cc1cccc2c1c(C(=O)Nc1ccccc1)c(SSc1c(C(=O)Nc3ccccc3)c3c(C)cccc3n1C)n2C measuredendpoint="inhibition at 100 µM" valuemeasured=6
molecule="O=C(NCc1ccccc1)C(Cc1c(SSc2[nH]c3ccccc3c2CC(NC(=O)C(F)(F)F)C(=O)NCc2ccccc2)[nH]c2ccccc12)NC(=O)C(F)(F)F (racemic)" measuredendpoint="inhibition at 100 µM" valuemeasured=37
molecule=Cc1ccc2c(c1)c(C(=O)Nc1ccccc1)c(SSc1c(C(=O)Nc3ccccc3)c3cc(C)ccc3n1C)n2C measuredendpoint="inhibition at 100 µM" valuemeasured=7

Enquiry: Record `COc1ccc2c(c1)c(C(=O)Nc1ccccc1)c(SSc1c(C(=O)Nc3ccccc3)c3cc(OC)ccc3n1C)n2C` : what is its inhibition at 100 µM with epidermal growth factor receptor tyrosine kinase (Homo sapiens, UniProt P00533)?
Return: 0

Enquiry: Form field - read-out: inhibition at 100 µM; system: epidermal growth factor receptor tyrosine kinase (Homo sapiens, UniProt P00533); submitted item: `O=C(NCc1ccccc1)c1c(SSc2[nH]c3ccccc3c2C(=O)NCc2ccccc2)[nH]c2ccccc12`
Return: 78

Enquiry: State its inhibition at 100 µM on epidermal growth factor receptor tyrosine kinase (Homo sapiens, UniProt P00533): `COC(=O)CCc1c(SSc2c(CCC(=O)OC)c3ccccc3n2C)n(C)c2ccccc12`
Return: 16.3

Enquiry: Please tell me: inhibition at 100 µM of `COC(=O)CCCc1c(SSc2c(CCCC(=O)OC)c3ccccc3n2C)n(C)c2ccccc12` , system epidermal growth factor receptor tyrosine kinase (Homo sapiens, UniProt P00533)?
Return: 14
